FYI, the data here is from ChEMBL document CHEMBL1127015.

# Tested on: Mus musculus
# METHOD_DESCRIPTION: Antagonism of apomorphine effects for 10-20 minutes in reserpinized mice following 0.4 umol/kg i.p.
# Format: functional
Note to self: Locomotor activity under 90 means True, ties and anything higher get False.

[[record]]
molecule = "CCCN1CC[C@@H]2c3cccc(OC)c3CC[C@H]21 (racemic)"
group_label = "False"

[[record]]
molecule = "C=CCN1CC[C@H]2c3cccc(OC)c3CC[C@H]21"
group_label = "False"

[[record]]
molecule = "C=CCN1CC[C@@H]2c3cccc(OC)c3CC[C@H]21 (racemic)"
group_label = "False"

[[record]]
molecule = "C=CCN1CCC2c3cccc(O)c3CC[C@H]21 (single isomer, unassigned; (-))"
group_label = "False"

[[record]]
molecule = "C=CCN1CC[C@H]2c3cccc(O)c3CC[C@H]21 (racemic)"
group_label = "False"

[[record]]
molecule = "C=CCN1CC[C@@H]2c3c(O)cccc3CC[C@H]21 (racemic)"
group_label = "True"

[[record]]
molecule = "CCCN1CC[C@@H]2c3cccc(O)c3CC[C@H]21 (racemic)"
group_label = "True"

[[record]]
molecule = "CCCN1CC[C@@H]2c3ccccc3CC[C@H]21 (racemic)"
group_label = "True"

[[record]]
molecule = "CCCN1CC[C@H]2c3c(cccc3OC)CC[C@H]21"
group_label = "False"

[[record]]
molecule = "CCCN1CC[C@H]2c3ccccc3CC[C@H]21 (racemic)"
group_label = "True"

